TEST NAME: Multiple ascending dose (MAD) study: multiple-dose pharmacokinetics
Assay type: in vivo, human
RECORDED CONDITIONS: human, plasma, oral, 40 mg BID, Day 7, 12 hr post-dose (156 h); read-out: Pre-dose (trough) plasma concentration, Mean

# SAMPLE SMILES, concentration at 156 h [ng/mL]
rows = [
    ("CC(=O)c1nn(CC(=O)N2[C@H](C(=O)Nc3nc(Br)ccc3C)C[C@@]3(C)C[C@@H]23)c2ccc(-c3cnc(C)nc3)cc12", 15.7),
]

----------
TEST NAME: Multiple ascending dose (MAD) study: multiple-dose pharmacokinetics
Format: in vivo, human
RECORDED CONDITIONS: human, plasma, oral, 80 mg, 80 mg BID × 14 Days, Day 7; read-out: Cmax, Mean

# MOLECULE, Cmax, ng/mL
data = [
    ("CC(=O)c1nn(CC(=O)N2[C@H](C(=O)Nc3nc(Br)ccc3C)C[C@@]3(C)C[C@@H]23)c2ccc(-c3cnc(C)nc3)cc12 [Compound 1]", 472),
]

----------
TEST NAME: Multiple ascending dose (MAD) study: multiple-dose pharmacokinetics
Format: in vivo, human
RECORDED CONDITIONS: human, plasma, oral, 120 mg, 120 mg BID × 14 Days, Day 1; read-out: AUC(0-12), Mean

# COMPOUND, AUC(0-t) [µg·h/mL]
rows = [
    ("CC(=O)c1nn(CC(=O)N2[C@H](C(=O)Nc3nc(Br)ccc3C)C[C@@]3(C)C[C@@H]23)c2ccc(-c3cnc(C)nc3)cc12 [Compound 1]", 1.2),
]

----------
TEST NAME: Multiple ascending dose (MAD) study: multiple-dose pharmacokinetics
Type: in vivo, human
RECORDED CONDITIONS: human, plasma, oral, 120 mg, 120 mg BID, Day 13, 12 hr post-dose (300 h); read-out: Pre-dose (trough) plasma concentration, Mean
Procedure: A multiple ascending dose (MAD) study of Compound 1 with two additional single-dose cohorts was also completed. […] In the MAD study, multiple-dose pharmacokinetics and pharmacodynamics of Compound 1 were evaluated in four dose groups administered Compound 1 (40, 80, 120 and 200 mg BID) in the fasted state for 14-days (Table 3). […]

# SAMPLE SMILES, concentration at 300 h / ng/mL
records = [
    ("CC(=O)c1nn(CC(=O)N2[C@H](C(=O)Nc3nc(Br)ccc3C)C[C@@]3(C)C[C@@H]23)c2ccc(-c3cnc(C)nc3)cc12", 88),
]

----------
TEST NAME: Phase I single ascending dose (SAD) study: plasma and urine pharmacokinetics
Assay type: in vivo, human
RECORDED CONDITIONS: human, plasma, oral, 80 mg, 80 mg single dose, fasted, plasma; read-out: AUC0-inf, Mean

# SAMPLE SMILES, AUC(0-inf) (µg·h/mL)
data = [
    ("CC(=O)c1nn(CC(=O)N2[C@H](C(=O)Nc3nc(Br)ccc3C)C[C@@]3(C)C[C@@H]23)c2ccc(-c3cnc(C)nc3)cc12", 1.39),
]

----------
TEST NAME: Multiple ascending dose (MAD) study: multiple-dose pharmacokinetics
Type: in vivo, human
RECORDED CONDITIONS: human, plasma, oral, 80 mg, 80 mg BID × 14 Days, Day 1; read-out: Cmax, Mean

# SAMPLE SMILES, READING UNIT, Cmax
data = [
    ("CC(=O)c1nn(CC(=O)N2[C@H](C(=O)Nc3nc(Br)ccc3C)C[C@@]3(C)C[C@@H]23)c2ccc(-c3cnc(C)nc3)cc12", "ng/mL", 207),
]

----------
TEST NAME: Multiple ascending dose (MAD) study: multiple-dose pharmacokinetics
Format: in vivo, human
RECORDED CONDITIONS: human, plasma, oral, 200 mg, 200 mg BID × 14 Days, Day 1

# SAMPLE SMILES, Tmax (h)
measured = [
    ("CC(=O)c1nn(CC(=O)N2[C@H](C(=O)Nc3nc(Br)ccc3C)C[C@@]3(C)C[C@@H]23)c2ccc(-c3cnc(C)nc3)cc12", 1.63),
]

----------
TEST NAME: Multiple ascending dose (MAD) study: multiple-dose pharmacokinetics
Assay type: in vivo, human
RECORDED CONDITIONS: human, plasma, oral, 40 mg, 40 mg BID × 14 Days, Day 14; read-out: AUC(0-24), Mean
MEASURED ATTRIBUTE: AUC(0-t) (ng·h/mL)

# SAMPLE SMILES, NUMERIC RESULT
data = [
    ("CC(=O)c1nn(CC(=O)N2[C@H](C(=O)Nc3nc(Br)ccc3C)C[C@@]3(C)C[C@@H]23)c2ccc(-c3cnc(C)nc3)cc12", 1460),
]

----------
TEST NAME: Multiple ascending dose (MAD) study: multiple-dose pharmacokinetics
Assay type: in vivo, human
RECORDED CONDITIONS: human, plasma, oral, 120 mg, 120 mg BID × 14 Days, Day 14; read-out: AUC(0-24), Mean

# SAMPLE SMILES, AUC(0-t) (ng·h/mL)
data = [
    ("CC(=O)c1nn(CC(=O)N2[C@H](C(=O)Nc3nc(Br)ccc3C)C[C@@]3(C)C[C@@H]23)c2ccc(-c3cnc(C)nc3)cc12", 7990),
]

----------
TEST NAME: Phase I single ascending dose (SAD) study: plasma and urine pharmacokinetics
Assay type: in vivo, human
RECORDED CONDITIONS: human, urine, oral, 40 mg, 40 mg single dose, fasted, urine; read-out: CLr, Mean (converted)

# SAMPLE SMILES, READING UNIT, CL renal
records = [
    ("CC(=O)c1nn(CC(=O)N2[C@H](C(=O)Nc3nc(Br)ccc3C)C[C@@]3(C)C[C@@H]23)c2ccc(-c3cnc(C)nc3)cc12", "mL/min", 2.67),
]

----------
TEST NAME: Multiple ascending dose (MAD) study: multiple-dose pharmacokinetics
Assay type: in vivo, human
RECORDED CONDITIONS: human, plasma, oral, 80 mg BID, Day 7, 12 hr post-dose (156 h); read-out: Pre-dose (trough) plasma concentration, Mean

# SAMPLE SMILES, concentration at 156 h
rows = [
    ("CC(=O)c1nn(CC(=O)N2[C@H](C(=O)Nc3nc(Br)ccc3C)C[C@@]3(C)C[C@@H]23)c2ccc(-c3cnc(C)nc3)cc12", "43.7 ng/mL"),
]

----------
TEST NAME: Multiple ascending dose (MAD) study: multiple-dose pharmacokinetics
Assay type: in vivo, human
RECORDED CONDITIONS: human, plasma, oral, 120 mg, 120 mg BID × 14 Days, Day 7; read-out: Cmax, Mean
MEASURED ATTRIBUTE: Cmax (ng/mL)

# COMPOUND, MEASURED ATTRIBUTE, NUMERIC RESULT
records = [
    ("CC(=O)c1nn(CC(=O)N2[C@H](C(=O)Nc3nc(Br)ccc3C)C[C@@]3(C)C[C@@H]23)c2ccc(-c3cnc(C)nc3)cc12 [Compound 1]", "Cmax", 885),
]

----------
TEST NAME: Multiple ascending dose (MAD) study: multiple-dose pharmacokinetics
Type: in vivo, human
RECORDED CONDITIONS: human, plasma, oral, 200 mg, 200 mg BID, Day 6, 12 hr post-dose (132 h); read-out: Pre-dose (trough) plasma concentration, Mean

# SAMPLE SMILES, READING UNIT, concentration at 132 h
records = [
    ("CC(=O)c1nn(CC(=O)N2[C@H](C(=O)Nc3nc(Br)ccc3C)C[C@@]3(C)C[C@@H]23)c2ccc(-c3cnc(C)nc3)cc12", "µg/mL", 0.241),
]

----------
TEST NAME: Multiple ascending dose (MAD) study: multiple-dose pharmacokinetics
Format: in vivo, human
RECORDED CONDITIONS: human, plasma, oral, 80 mg, 80 mg BID, Day 6, 0 hr post-dose (120 h); read-out: Pre-dose (trough) plasma concentration, Mean

# SAMPLE SMILES, concentration at 120 h
records = [
    ("CC(=O)c1nn(CC(=O)N2[C@H](C(=O)Nc3nc(Br)ccc3C)C[C@@]3(C)C[C@@H]23)c2ccc(-c3cnc(C)nc3)cc12", "73.8 ng/mL"),
]

----------
TEST NAME: Multiple ascending dose (MAD) study: multiple-dose pharmacokinetics
Assay type: in vivo, human
RECORDED CONDITIONS: human, plasma, oral, 120 mg, 120 mg BID, Day 7, 12 hr post-dose (156 h); read-out: Pre-dose (trough) plasma concentration, Mean

# SAMPLE SMILES, concentration at 156 h (ng/mL)
measured = [
    ("CC(=O)c1nn(CC(=O)N2[C@H](C(=O)Nc3nc(Br)ccc3C)C[C@@]3(C)C[C@@H]23)c2ccc(-c3cnc(C)nc3)cc12", 67.2),
]
